tgt: flPOT1 Q623H;TPP1(87) (Homo sapiens;Homo sapiens, UniProt Q9NUX5;Q96AP0 1-634;1-458, Q623H|)
Sequence (Q9NUX5 whole entry Q623H, chain 1 of 2): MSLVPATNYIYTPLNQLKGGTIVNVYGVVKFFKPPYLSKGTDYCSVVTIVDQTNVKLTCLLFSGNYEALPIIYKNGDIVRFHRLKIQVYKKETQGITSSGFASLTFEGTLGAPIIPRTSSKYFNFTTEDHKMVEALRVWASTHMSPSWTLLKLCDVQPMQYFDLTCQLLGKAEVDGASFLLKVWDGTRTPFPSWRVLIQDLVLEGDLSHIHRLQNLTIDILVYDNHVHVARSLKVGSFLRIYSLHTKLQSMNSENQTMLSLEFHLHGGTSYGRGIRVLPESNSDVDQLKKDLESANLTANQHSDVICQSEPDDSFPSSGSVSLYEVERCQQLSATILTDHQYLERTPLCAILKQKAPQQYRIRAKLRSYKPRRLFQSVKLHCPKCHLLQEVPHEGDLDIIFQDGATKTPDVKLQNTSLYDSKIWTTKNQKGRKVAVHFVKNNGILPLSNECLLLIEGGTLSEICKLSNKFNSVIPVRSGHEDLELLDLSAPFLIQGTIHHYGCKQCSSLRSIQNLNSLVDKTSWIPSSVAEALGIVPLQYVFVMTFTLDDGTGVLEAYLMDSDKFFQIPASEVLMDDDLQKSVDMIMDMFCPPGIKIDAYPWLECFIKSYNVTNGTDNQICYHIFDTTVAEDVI
Sequence (Q96AP0 whole entry, chain 2 of 2): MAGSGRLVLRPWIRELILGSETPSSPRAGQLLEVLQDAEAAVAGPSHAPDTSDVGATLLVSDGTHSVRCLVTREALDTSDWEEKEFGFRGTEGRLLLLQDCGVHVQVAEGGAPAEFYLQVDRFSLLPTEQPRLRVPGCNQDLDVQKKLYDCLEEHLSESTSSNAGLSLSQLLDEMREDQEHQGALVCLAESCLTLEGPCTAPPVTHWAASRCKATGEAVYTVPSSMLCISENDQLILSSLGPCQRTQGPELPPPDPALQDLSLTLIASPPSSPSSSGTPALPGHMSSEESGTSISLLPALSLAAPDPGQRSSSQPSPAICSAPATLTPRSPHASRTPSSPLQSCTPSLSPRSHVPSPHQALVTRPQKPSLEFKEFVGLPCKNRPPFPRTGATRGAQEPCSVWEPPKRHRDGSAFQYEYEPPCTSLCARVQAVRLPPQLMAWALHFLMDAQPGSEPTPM
test-protocol: fluorescence polarization; FP: 20 mM Hepes pH 7.5, 100 mM KCl, 2 mM MgCl2, 1 mM EDTA, 2 mM DTT, 1 mg/ml BSA, 5% glycerol, 75 nM polyT50 competitor, 2.5 nM probe, room temperature 30 min
reported-conditions: protein: recombinant;recombinant, tags: N-terminal His6-pMocr, TEV-cleaved;N-terminal His6-MBP, copies: 1;1, label: 5' 6-FAM, single strand
quantity-kind: Kd (nM)
Give bare numbers, in nM.

Kd reported for this binder TTAGGGTTAGGGTTAGGG (ssDNA) [telomeric 18mer (TTAGGG)3] : 8.9
